Data provenance: patent US10752587B2

biological target: glutathione-S-transferase (GST) tagged LXRbeta LBD (ligand binding domain) (Homo sapiens, UniProt P55055); construct: purchased Invitrogen pv4658.pps; assay: LanthaScreen TR-FRET Liver X Receptor Coactivator Assay, co-activator recruitment to LXRbeta LBD; type: biochemical; conditions: potency (Inflection Point, IP), co-activator recruitment to LXRbeta LBD, in relation to T0901317; read-out: LXR beta IP
outcome-measure: EC50 (nM)

| molecule | unit | EC50 |
| --- | --- | --- |
| CCc1cccc([C@@](O)(C(=O)N2CCC(CC3CCN(c4ccc(C(=O)NC)c(Cl)n4)CC3)CC2)C(F)(F)F)c1 [Example 7-148] | nM | 12 |
| CCC(O)(C(=O)N1CCC(CC2CCN(c3ccc(C(=O)N(C)C)c(Cl)c3)CC2)CC1)c1ccccc1 (stereo not shown) [Example 2-32] | nM | 72 |

1: CNC(=O)c1ccc(N2CCC(CC3CCN(C(=O)[C@@](O)(c4ccccc4)C(F)(F)F)CC3)CC2)nc1Cl [Example 7-140]
2: CNC(=O)c1ccc(N2CCC(CC3CCN(C(=O)[C@](O)(c4cccc(OC(F)(F)F)c4)C(F)(F)F)CC3)CC2)cc1Cl [Example 7-125]
3: CN(C)C(=O)c1ccc(N2CCC(OC3CCN(C(=O)N4CC(O)(C(F)(F)F)C4)CC3)CC2)cc1Cl [Example 8-1]
4: CN(C)C(=O)c1ccc(N2CCC(CC3CCN(C(=O)[C@](O)(c4cccc(Br)c4)C(F)(F)F)CC3)CC2)cc1Cl [Example 2-83]
5: CNC(=O)c1ccc(N2CCC(CC3CCN(C(=O)[C@](O)(c4cccc(OC)c4)C(F)(F)F)CC3)CC2)cc1Cl [Example 7-127]
// query Hey, quick one: sort these by EC50, largest value first please. As an answer, provide the labels arranged in the order called for.
// result 3, 1, 2, 5, 4
(3: 30000 nM, 1: 158 nM, 2: 37 nM, 5: 19 nM, 4: 4 nM)

----------
biological target: glutathione-S-transferase (GST) tagged LXRbeta LBD (ligand binding domain) (Homo sapiens, UniProt P55055); construct: purchased Invitrogen pv4658.pps; experiment: LanthaScreen TR-FRET Liver X Receptor Coactivator Assay, co-activator recruitment to LXRbeta LBD; type: biochemical; conditions: efficacy at max dose, in relation to reference dual agonist T0901317; read-out: LXR beta Activity @ max dose (%)
outcome-measure: Emax (%)

| compound | unit | Emax |
| --- | --- | --- |
| COc1cccc([C@@](O)(C(=O)N2CCC(CC3CCN(c4ccc(C(=O)N(C)C)c(Cl)n4)CC3)CC2)C(F)(F)F)c1 [Example 7-52] | % | 69 |

1: CN(C(=O)c1ccc(N2CCC(CC3CCN(C(=O)[C@](O)(c4ccccc4)C(F)(F)F)CC3)CC2)cc1Cl)C1CC1 [Example 4-11]
2: CN(C)C(=O)c1ccc(N2CCC(CC3CCN(C(=O)C(O)(Cc4ccccc4)C(F)(F)F)CC3)CC2)cc1Cl (stereo not drawn) [Example 2-36]
// query Compare Emax: is it lower for 1 or for 2 ? Write down the label attached to your selection.
// result 1

I: CCOc1cccc(C(O)(C(=O)N2CCC(CC3CCN(c4ccc(C(=O)N(C)C)c(Cl)n4)CC3)CC2)C(F)(F)F)c1 (stereo not drawn) [Example 7-77]
II: CN(C)C(=O)c1ccc(N2CCC(OC3CCN(C(=O)[C@](O)(c4ccccc4)C(F)(F)C(F)(F)F)CC3)CC2)cc1Cl [Example 2-22]
// query Kindly compare I with II and tell me which has the lower Emax figure. Select an item and report its label.
// result I
(I: 53%, II: 131%)

P: Cc1cc(N2CCC(CC3CCN(C(=O)OC(C)(C)C)CC3)CC2)ccc1C(=O)N(C)C [Example 1-2]
Q: CN(C)C(=O)c1ccc(N2CCC(CC3CCN(C(=O)[C@](O)(c4cccc(F)c4)C(F)(F)F)CC3)CC2)cc1Cl [Example 2-84]
R: CCc1cccc([C@@](O)(C(=O)N2CCC(C)(CC3CCN(c4ccc(C(=O)N(C)C)c(Cl)c4)CC3)CC2)C(F)(F)F)c1 [Example 2-52]
// query Put these in order: smallest Emax first, largest last. Provide the labels, sequenced as the question asks.
// result R, P, Q
(R: 20%, P: 58%, Q: 83%)

----------
Biological target: glutathione-S-transferase (GST) tagged LXRbeta LBD (ligand binding domain) (Homo sapiens)
Construct: purchased Invitrogen pv4658.pps
Sequence (P55055 222-460 limits assumed): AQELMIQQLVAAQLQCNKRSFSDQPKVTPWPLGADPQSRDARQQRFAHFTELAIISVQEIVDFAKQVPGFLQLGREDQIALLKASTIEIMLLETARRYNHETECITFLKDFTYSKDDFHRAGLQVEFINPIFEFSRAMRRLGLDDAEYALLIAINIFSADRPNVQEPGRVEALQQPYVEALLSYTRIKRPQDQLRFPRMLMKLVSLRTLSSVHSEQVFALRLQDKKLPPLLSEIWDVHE
Test: LanthaScreen TR-FRET Liver X Receptor Coactivator Assay, co-activator recruitment to LXRbeta LBD
Assay type: biochemical
Settings: read-out: LXR beta Activity @ max dose (%)
Source text: […]
Listed below: Emax values for each entry.
Enter your answer as a number in %; do not include the unit.

| compound | outcome-measure | unit | numeric-readout |
| --- | --- | --- | --- |
| CN(C)C(=O)c1ccc(N2CCN(CC3CCN(C(=O)[C@](O)(c4ccccc4)C(F)(F)F)CC3)CC2)cc1Cl [Example 6-1] | Emax | % | 60 |
| CN(C)C(=O)c1ccc(N2CCC(CC3CCN(C(=O)[C@](O)(c4ccccc4)C4CC4)CC3)CC2)cc1Cl [Example 2-105] | Emax | % | 48 |
| CN(C)C(=O)c1ccc(N2CCC(CC3CCN(C(=O)C(O)(c4ccccc4)c4ccccc4)CC3)CC2)nc1Cl [Example 7-95] | Emax | % | 21 |
| CNC(=O)c1ccc(N2CCC(SC3CCN(C(=O)[C@](O)(c4cccc(OC)c4)C(F)(F)F)CC3)CC2)nc1Cl [Example 11-1] | Emax | % | 93 |
| Cc1cc(N2CCC(CC3CCN(C(=O)C(O)(c4cccc(Cl)c4)C(F)(F)F)CC3)CC2)ncc1C(=O)N(C)C (stereo not drawn) [Example 7-4] | Emax | % | 63 |

// moving on: another record for Emax
Sure, the documented Emax for CN(C)C(=O)c1ccc(N2CCC(CC3CCN(C(=O)C(O)(c4ccccn4)C4CC4)CC3)CC2)cc1Cl (stereo not drawn) [Example 2-118] is 68

----------
Molecular target: glutathione-S-transferase (GST) tagged LXRbeta LBD (ligand binding domain) (Homo sapiens, UniProt P55055)
Construct: purchased Invitrogen pv4658.pps
Sequence (P55055 222-460 limits assumed): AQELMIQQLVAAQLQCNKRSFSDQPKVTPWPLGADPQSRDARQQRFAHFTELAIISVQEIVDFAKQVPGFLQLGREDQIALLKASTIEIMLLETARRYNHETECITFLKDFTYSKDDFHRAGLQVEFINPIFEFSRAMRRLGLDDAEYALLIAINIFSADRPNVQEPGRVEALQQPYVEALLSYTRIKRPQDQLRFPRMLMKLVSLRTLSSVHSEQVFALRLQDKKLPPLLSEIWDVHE
Assay: LanthaScreen TR-FRET Liver X Receptor Coactivator Assay, co-activator recruitment to LXRbeta LBD
Type: biochemical
Details: potency (Inflection Point, IP), co-activator recruitment to LXRbeta LBD, in relation to T0901317; read-out: LXR beta IP
outcome-measure: EC50 (nM)

| compound | outcome-measure | unit | numeric-readout |
| --- | --- | --- | --- |
| CNC(=O)c1ccc(N2CCC(CC3CCN(C(=O)C(O)(c4cc(F)cc(F)c4)C(F)(F)F)CC3)CC2)cc1Cl (stereo not drawn) | EC50 | nM | 9 |
| O=C(c1ccc(N2CCC(CC3CCN(C(=O)[C@](O)(c4cc(Cl)cc(Cl)c4)C(F)(F)F)CC3)CC2)cc1Cl)N1CC[C@@H](O)C1 | EC50 | nM | 35 |
| CN(C)C(=O)c1ccc(N2CCC(CC3CCN(C(=O)C(O)(c4cc(F)cc(F)c4)C(F)(F)F)CC3)CC2)cc1 (stereo not drawn) | EC50 | nM | 38 |
| COc1cccc([C@@](O)(C(=O)N2CCC(CC3CCN(c4ccc(C(=O)N(C)C)cc4)CC3)CC2)C(F)(F)F)c1 [Example 2-132] | EC50 | nM | 51 |

P: COCCN(C)C(=O)c1ccc(N2CCC(CC3CCN(C(=O)[C@](O)(c4ccccc4)C(F)(F)F)CC3)CC2)cc1Cl
Q: COc1cccc([C@@](O)(C(=O)N2CCC(CC3CCN(c4cnc(C(=O)N(C)C)c(C)c4)CC3)CC2)C(F)(F)F)c1
// query Pick one: P or Q . Which has the bigger EC50 number? Provide the label of your selected option as the answer.
// result Q
